Recorded PBM binding z-score for the following sequences
system: RARg homodimer (NR concentration 270 nM); assay: PBM binding z-score (relative to random genomic background probes); higher = stronger binding; sequences stand for … in GC…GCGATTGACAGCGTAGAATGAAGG
PARAMETER MEASURED: PBM binding z-score

1. GTACCAAGGTGAATACGTCGTTGATGAGTAGGCG	0.692
2. CTACCTAGGTGAACAAGGTCGTTGATTACTATTC	0.8
3. TCGAGCAGGTTAGTCGGGGCATTCAGCCAACATA	-0.25
4. AGAATGAGGTTATACGTAGATCAGGCAAGAAAGT	1.11
5. CTACCGAGGTGAACAAGGTCGTTGATTACTATTC	1.74
6. GCTGCTAGGGCAGGTTGGTCAGCTAACGGGTACG	0.544
7. AGTCAAAGTTCACTAGGTAGCGTAAGATTCAGCT	5.68
8. TGAAAGAGGTTAAAGATCAGGGAACGTGGCGTCG	1.68
9. GTACCAAGGTGAATAGGTCGTTGCTGAGTAGGCG	1.13
10. GTACCAAGGTGAATTGGTCGTTGATGAGTAGGCG	0.444
11. TCTTGAAGATCAAGCAGGTTAAGAAAGCCTGAGT	-0.516
12. GCTTACGGGTCAAAGGTTATAGAATGAATAGAAT	5.16
13. GCAGACAGGTGAAACCCAGGTAACTCAGGGTGGC	0.3
14. GCTAGCAGGCCATTTGGGTCGCTCAATGACGGGC	-0.146
15. TAGCCTATGTCATGGGCCAGTATACCACGCGAAC	0.474
16. ACTAGCAGGCCGAGGGTCACTCAAGATTAGTCCG	2.14
17. CCTACTGGGCCATCAGCTCATTGATATCAACGTT	0.0511
18. GCTAGTTGGTCAGTAAAAGGTCATACACCGGTCG	3.6
19. AATACAGCGTCATCGTAGGCCAGAGTACGCACAG	0.174
20. ACGAGTTGGTCAGCTGAGGTCACACACAATTCGG	4.27
21. CCTCGGAGGACAACAGGAGGTCAGTGCTGCCAGA	3.22
22. ATCGAAAGGTCGACAAGGTGAGTATACACCGTTT	3.99
23. CCTAATGGGCCAAAGGTCATTGATTCCAATGCTC	5.06
24. CTCTAAAGGTCGGTTGAGGTGAGTATACGGATAA	3.15
25. AGAATGAGGTTATTAAGATCAGCGAATTGCGGTC	0.64
26. ATCTCTAGGTAAAGATAGTCCAGTGAATGCAAAT	0.658
27. TTACCATGGTGAAGGTCGTTGATCCCTCTGTAGA	-0.00813
28. GCTATTAGTTGAAAGGGCAACTGAATGATTCTCG	1.31
29. TCGAGTAGGTTACCAATGGGGCATTTAGCTTTCT	0.384
30. TCTATTAGTTGATTAGGACAACCGAAACAGCGGA	0.926
31. CTTCCAAGGTCAGAGAGGTCAGTGAATGCCGAGT	7.29
32. GCGACTGGGGCATCAGCAGGTTATCATAACTTAA	0.586
33. ATATGTAGGTCACATCCGGGTCATTCAGGCTATG	5.7
34. TCATATAGGTACACAGGTGAAAGTCCGTAAGTTA	0.513
35. CCTGCCAGGTCATGGTCAGCTAATCTACAGTATG	4.46
36. GCTGCTACGTCAACTGATGGTCAGCTAAAGCTCG	-0.441
37. CGTCCAAGGGCAGAGAGGTCAGTGAATGCCGAGT	4.06
38. GTACCAAGGTGTATAGGTCGTTGATGAGTAGGCG	0.288
39. CCGACTGGGGCAAGGGTACCATAACGCACAGCCA	0.692
40. CCTCGGAGGACAGAAGGTCACAGCTGTCCGCTTT	4.05
41. AGAATGAGGTTATACGTAGATCAGGGAAGAAAGT	1.24
42. AGAACGTGGGCACGCTGAGTTGATAGCAGAGTAG	-0.0604
43. ACTATTAGTTGAGACGAGGGTAACCGATAGGTTG	0.596
44. TCTTGTAGATCAATAGAGGTTAAGAACGTGCGCT	0.716
45. GTACCAAGGCGAATAGGTCGTTGATGAGTAGGCG	0.191
46. TCTAACAGGCCAGAGGGTCACTCAAGAGGTACGG	2.14
47. ACTAGCAGGCCGAGTTTGGGTCACTCAAACAAAG	0.63
48. TCATATAGGAAAACAGGTGAAAGTCCGTAAGTTA	0.0668
49. CAAACTAGGTCACCGGAAGGTCAAAGTCCGCATG	7.82
50. CCATACGGGTCAAGGTTATAGCACGGGTGGTACG	4.33
51. ATCTCTAGGTAACAATTTCAGTGAAAGAGAGGAC	0.814

====

Measured PBM binding z-score by item
test system: RARb:RXRa (NR concentration 270 nM, RXRa partner concentration 90 nM); test: PBM binding z-score (relative to random genomic background probes); higher = stronger binding; sequences stand for … in GC…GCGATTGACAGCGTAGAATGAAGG
PARAMETER MEASURED: PBM binding z-score

1. TCTTGTAGATCGAGCAGGTTAAGAAAGCCTGAGT	-0.102
2. AGTCAAAGTTCAGGAGGAGGTAACGTAAAGCACG	4.57
3. CAAACTAGGTCACCAAAGGTCAAAGTCGAATGAC	5.85
4. CAAGACAGGTGAGAAGGTAACTCAGCCTCGATTA	0.867
5. GCTGCTAGGTCAACCGATGGTCAGCTAAAGCTCG	4.22
6. CCTGCTAGGTCAATGGACAGCTAAAGCAGCTCGC	3.75
7. ACTATTAGTTGAGACGAGGGGAACCGATAGGTTG	0.18
8. GGAACGAGGGCAAAGTTGATAGCTTCTGTCGACG	2.14
9. ATCTCTAGGTAAAAGTTCGGTGAATCCCGAGGAT	0.906
10. CGAACGAGGGCATGACTTGATAGCAAATGCCGAT	2.01
11. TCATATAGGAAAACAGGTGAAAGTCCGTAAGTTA	0.355
12. CCTACTGGGCCAAAAAGGTCAATGATGCCGATAA	4

====

system: RXRa homodimer (NR concentration 180 nM); assay: PBM binding z-score (relative to random genomic background probes); higher = stronger binding; sequences stand for … in GC…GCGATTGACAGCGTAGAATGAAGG
Cut-off 0.2 on PBM binding z-score, inclusive. At or above means label 1; below means label 0.

1) ATCACTAGGTAAGACTCAGTTCAGTGAAGAACGC	label 0
2) TTTAGTTGGTCACGGAGGTCACACACGACGGGTA	label 1
3) ACTAGCAGGCCAAGGGTCATTCAAGATTAGTCCG	label 1
4) CCTTACGGGTCAAGGTTCTAGCACGGGTGGTACG	label 1
5) CCTGCTAGGTCGATGGTCAGCTAAAGCAGCTCGC	label 0

====

Collected PBM binding z-score values appear next to each entry.
system: PPARg DBDmut IVT, anti-PPARg (DBD mutation: PPARg1 K132A/R137A, NR concentration 270 nM); assay: PBM binding z-score (relative to random genomic background probes); higher = stronger binding; sequences stand for … in GC…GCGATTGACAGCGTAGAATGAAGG
PARAMETER MEASURED: PBM binding z-score

1) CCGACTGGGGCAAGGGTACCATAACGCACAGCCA	-0.113
2) ACCGAAAGGTCGTGAGGTGAGTATACAGAAAGGC	0.846
3) TCTGCTAGGTCCACGATGGTCAGCTAATCTGCTA	-0.628
4) CGAACGAGGGCATGTGTTGATAGCAAATGCCGAT	-0.912
5) CGTCAAAGTTCAACGTAACGTAACAGAAAGCAGC	1.04
6) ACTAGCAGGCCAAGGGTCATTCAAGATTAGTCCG	-0.155
7) CATACAGTGTCAGCTAGGCCAGAGTAGGGACGGC	-0.0038
8) GCTTACGGGTCAAAGGTTATACCATGAATAGAAT	1.93
9) CCTTACGGGTCACTAGGTTATAGCACGACGAGCG	0.896
10) CGAACTAGGTCAAGTACAGTGAATCTCCGCACGC	1.97
11) CCTTACGGGTCACTCCAGGATATAGCATCGGAGT	-0.0388
12) CCGACTGGGGCAGAAAGGTTACAATACCATCCGG	-0.38
13) CGAACGAGGGCATGAGTCGATAGCAAATGCCGAT	-0.876
14) ACTCGCAGGCCAAGGGTCACTCAAGATTAGTCCG	0.18
15) CGAACTAGGTCATTGACAGGACTGTGAATAGTAA	3.75
16) TCTGCTCGGTCAGTTGGTCAGCTAACGAGCTGCC	0.0745
17) CGTCCAAGGTCAAGGTCAGTGTAAGAGACTCGAA	0.0248
18) CCGTACGGGTCACTCCAGGTTATAGCATCGGAGT	-1.04
19) CGTCAAAGTTCGACTAAGGTAACGTAAAGCACGC	-0.2
20) ACTCGGAGTACAAAGGTCAGAGCTACGCCAGTGA	0.136
21) TCTATTATTTGATTAGGGCAACCGAAACAGCGGA	2.12
22) CCGACTGGGGCATAAGGTTACCTTAAGCCAGCCC	-1.61
23) GGGACGAGGGCATTCGAGTTGATAGCATGGCGAT	0.189
24) ACTAGCAGGCCAAGTGTGGGTCACTCAAACAAAG	-0.527
25) GCAGACAGGTGAAACGCAGGGAACTCAGGGTGGC	-0.787
26) ATCTCTAGGTAAAGATAGTTCAGTGGATGCAAAT	0.158

Data credit: the supplement of paper PMC6555819
